# Protocol notes: Clinical pharmacokinetics: plasma CYH33 and I27 by LC/MS/MS
# Type: in vivo, human
# Conditions used: human, plasma, oral, 30 mg, CYH33, Cycle 1 Day 1, 30 mg (n = 12); read-out: Cmax, mean (CV%)

{"Compound structure string": "COC(=O)Nc1cc(C(F)(F)F)c(-c2nc(N3CCOCC3)c3cc(CN4CCN(S(C)(=O)=O)CC4)cn3n2)cn1", "Cmax, ng/mL": 96.5}

---

# Protocol notes: Clinical pharmacokinetics: plasma CYH33 and I27 by LC/MS/MS
# Type: in vivo, human
# Conditions used: human, plasma, oral; C1D1, 10 mg, 72 h
Observable: concentration at 72 h (ng/mL)

{"Molecule": "COC(=O)Nc1cc(C(F)(F)F)c(-c2nc(N3CCOCC3)c3cc(CN4CCN(S(C)(=O)=O)CC4)cn3n2)cn1 [CYH33]", "Observable": "concentration at 72 h", "Val": 3.2}
